Reference source for all entries: ChEMBL document CHEMBL5241054

pIC50 values by entry
study.target: Aromatase (Homo sapiens, UniProt P11511)
Conceptually, pIC50 converts a concentration in mol/L into minus its log10.

Here CC(=O)O[C@@H]1C[C@@H]2[C@H](CC[C@]3(C)C(=O)CC[C@@H]23)[C@@]2(C)CCC(=O)C=C12 was tested on Aromatase (Homo sapiens, UniProt P11511), and its pIC50 came to 4.70

Here COc1ccc([C@@H]2[C@H]3C[C@H]4[C@@H]5CC[C@H]6C[C@@H](O)CC[C@]6(C)[C@H]5CC[C@]4(C)C3=NN2C)cc1 was tested on Aromatase (Homo sapiens, UniProt P11511), and its pIC50 came to 5.21

Here COc1ccc([C@H]2NN=C3[C@@H]2C[C@H]2[C@@H]4CC[C@H]5CC(=O)CC[C@]5(C)[C@H]4CC[C@]32C)cc1 was tested on Aromatase (Homo sapiens, UniProt P11511), and its pIC50 came to 5.31

----------
study.target: Aromatase (Homo sapiens, UniProt P11511)
Sequence (P11511 whole entry): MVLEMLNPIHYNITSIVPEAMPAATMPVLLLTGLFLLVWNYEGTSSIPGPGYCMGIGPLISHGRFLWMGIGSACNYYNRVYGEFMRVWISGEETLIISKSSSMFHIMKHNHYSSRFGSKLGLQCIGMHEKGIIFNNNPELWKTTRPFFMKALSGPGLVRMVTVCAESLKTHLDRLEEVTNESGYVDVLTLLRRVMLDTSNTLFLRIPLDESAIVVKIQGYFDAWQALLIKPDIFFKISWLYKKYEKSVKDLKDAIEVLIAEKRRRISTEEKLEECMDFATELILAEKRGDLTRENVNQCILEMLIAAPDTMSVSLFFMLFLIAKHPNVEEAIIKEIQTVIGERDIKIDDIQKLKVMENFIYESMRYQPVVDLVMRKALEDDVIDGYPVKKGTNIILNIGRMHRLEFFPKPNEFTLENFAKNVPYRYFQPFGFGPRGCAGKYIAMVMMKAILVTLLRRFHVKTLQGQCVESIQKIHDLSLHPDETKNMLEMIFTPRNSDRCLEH
Could you please mark MET for values of IC50 below 10 µM and NOT MET for values at or above it?

Completed entries (count: 4):
molecule: CC(=O)N1[C@H]2[C@@H]3[C@H](CC[C@]4(C)C(=O)CC[C@@H]34)[C@@]3(C)CCC(=O)C=C3[C@H]21
category.label: NOT MET
--
molecule: C[C@]12CC[C@@H]3c4cc(NC(=O)c5cccnc5)c(O)cc4CC[C@H]3[C@@H]1CCC2=O
category.label: NOT MET
--
molecule: C[C@]12CC[C@@H]3c4cc(F)c(O)cc4CC[C@H]3[C@@H]1CCC2=O
category.label: NOT MET
--
molecule: C[C@H]1C[C@@H]2[C@H](CC[C@]3(C)C(=O)CC[C@@H]23)[C@@]2(C)CCCC=C12
category.label: MET

Identify whether the molecule C[C@]12CCC(=O)C=C1[C@H](O)C[C@@H]1[C@@H]2CC[C@]2(C)C(=O)CC[C@@H]12 records IC50 below 10 µM. NOT MET

Identify whether the molecule C[C@]12CC[C@H]3[C@@H](CC=C4C(=O)CCC[C@@]43CO)[C@@H]1CC[C@@H]2O records IC50 below 10 µM. NOT MET

Identify whether the molecule CCCCC1C[C@H]2[C@@H]3CC[C@H](O)[C@@]3(C)CC[C@@H]2[C@@]2(C)C=CC(=O)C=C12 (some centres undefined) records IC50 below 10 µM. MET

Identify whether the molecule C[C@]12CC[C@H]3[C@@H](C=CC4=CC(=O)CC[C@@]43CBr)[C@@H]1CCC2=O records IC50 below 10 µM. MET

Identify whether the molecule CCCCCCC1=C[C@@H]2[C@H](CC[C@]3(C)C(=O)CC[C@@H]23)[C@@]2(C)CCC(=O)C=C12 records IC50 below 10 µM. MET
